# Test system: HL-60(TB) leukemia
# assayProtocol: NCI tumour cell line growth inhibition, 48 h
experimentalEndpoint: log10 of TGI (log10 of the value in µM)
Quick note: numbers are log10 of TGI, with µM as the unit.

Q: Note log10 of TGI for the compound shown: `O=[N+]([O-])c1cccc2nc3ccccc3c(NCCNCCO)c12`
Ans: -0.96

Q: Specify reported log10 of TGI for the compound shown: `COc1ncc(C#CC(=O)c2ccccc2OC)c(OC)n1`
Ans: 0.67

Q: Dear colleague, please send me the reported log10 of TGI for `CCC(/C=C/c1ccccc1)=N\NC(=S)N/N=C(/C=C/c1ccccc1)CC` when you can.
Ans: 1.80

Q: Using known records, supply log10 of TGI for Cc1cc2nc3c(C(O)CO)nn(-c4ccccc4)c3nc2cc1C (stereo not given)
Ans: 1.66

Q: Indicate its recorded log10 of TGI; the compound in question is `C(/C=N/NC1=NCCN1)=N\NC1=NCCN1`
Ans: 1.53

Q: Give a short answer stating reported log10 of TGI for O=C(O)c1cc2c(cc1S(=O)(=O)O)C1C(C3C2C2(Cl)C(Cl)=C(Cl)C3(Cl)C2(Cl)Cl)C2(Cl)C(Cl)=C(Cl)C1(Cl)C2(Cl)Cl (stereo not given) .
Ans: 1.90

====

# System: U251 CNS
# assayProtocol: NCI tumour cell line growth inhibition, 48 h
Give Y when the value for TGI is at least 30 µM. Give N when it is less.

Q: Given COc1ccc(C2c3cc4c(cc3OC(N3CCOCC3)C2C)OCO4)c(OC)c1 (stereo not given) , state whether its TGI is at least 30 µM.
Ans: N

Q: Evaluate `O/N=C1\CC2(N3CCOCC3)CCC1(Cc1ccccc1)CC2` : TGI at minimum 30 µM?
Ans: Y

Q: Would you say `CSc1nc(-c2cc3c(c(SC)n2)CCC3)cc2c1CCC2` shows TGI at minimum 30 µM?
Ans: Y

Q: Can C/C=C/OC1C(C2COC(C)(C)O2)OC2OC(C)(C)OC21 (stereo not given) be said to have TGI at or above 30 µM?
Ans: Y

Q: Decide: is the reported value of TGI for `Cc1c(Cl)cccc1NC(=O)c1sc2nc3c(cc2c1N)CCCCCC3` equal to or greater than 30 µM?
Ans: N

Q: State whether the measured TGI reaches 30 µM, counting equality as reaching it, for `C/C(=C1/N=C(c2cc([N+](=O)[O-])ccc2Cl)N(C2=CC=C(Cl)CC2)C1=O)c1cc2ccccc2oc1=O`
Ans: Y

Q: Hi team, for `CC(C)(C)OC(=O)/C=C/C(=O)O/C=C/[N+](=O)[O-]` , is the recorded TGI at or above 30 µM?
Ans: Y

Q: Hi team, for `CC(=O)/C=C/c1c[nH]c(=O)[nH]c1=O` , is the recorded TGI at or above 30 µM?
Ans: Y

Q: Does TGI meet or surpass 30 µM for `Cn1c(=O)c2[nH]c(COCc3nc4c([nH]3)c(=O)n(C)c(=O)n4C)nc2n(C)c1=O` ?
Ans: Y

Q: Given the entry `COc1ccc(/C=N/n2c(Cc3ccc(Cl)cc3)n[nH]c2=O)cc1` , answer whether its TGI meets or surpasses 30 µM.
Ans: Y

====

So I've got a bunch of molecules here, and I need their TGI values.
# Test system: RXF 393 renal
# assayProtocol: NCI tumour cell line growth inhibition, 48 h
Provide only the numeric value, understood in µM.

Q: Look up and state reported TGI for `COc1cc2c(OC)c(c1)CCCC1=CC(=O)C=C(CCC2)C1=O`
Ans: 76.7

Q: Output TGI of CCC(C)/C=C(C)/C=C/C(=O)c1c(O)c(-c2ccc(O)cc2)c[nH]c1=O (configuration not stated)
Ans: 6.97

Q: Kindly indicate its recorded TGI. Item: `O=[N+]([O-])C(=C/C1CCCCC1)/C(=C\C1CCCCC1)[N+](=O)[O-]`
Ans: 3.93

Q: Give reported TGI value for `C#CCSc1cnc2ccccc2c1Sc1c[nH]c2ccccc2c1=O`
Ans: 36.1

Q: Give reported TGI value for `c1ccc2c(Cc3c[nH]c4ccccc34)c[nH]c2c1`
Ans: 33.1

Q: Report measured TGI; entry is `COc1ccccc1/C=C1/Sc2scc(CC(=O)Nc3ccccc3)[n+]2C1=O`
Ans: 80.8

Q: Look up TGI of `Cc1nn2c(/C=C3/C(=O)Nc4ccccc43)c(-c3ccc(Cl)cc3)nc2s1` and report it.
Ans: 42.8
